target: pY705-STAT3 in PBMC (Homo sapiens); construct: Cryopreserved Peripheral Blood Mononuclear Cells (PBMC) are from AllCells; host or cells: cryopreserved PBMC; experiment: MSD-pSTAT-PBMC Assay (pSTAT3, IL-6 stimulated); format: cell-based; conditions: PBMC, compound 3 hrs, then 10 ng/mL IL-6 for 10 min; Table 1114; read-out: pSTAT3
Sequence (P40763 whole entry): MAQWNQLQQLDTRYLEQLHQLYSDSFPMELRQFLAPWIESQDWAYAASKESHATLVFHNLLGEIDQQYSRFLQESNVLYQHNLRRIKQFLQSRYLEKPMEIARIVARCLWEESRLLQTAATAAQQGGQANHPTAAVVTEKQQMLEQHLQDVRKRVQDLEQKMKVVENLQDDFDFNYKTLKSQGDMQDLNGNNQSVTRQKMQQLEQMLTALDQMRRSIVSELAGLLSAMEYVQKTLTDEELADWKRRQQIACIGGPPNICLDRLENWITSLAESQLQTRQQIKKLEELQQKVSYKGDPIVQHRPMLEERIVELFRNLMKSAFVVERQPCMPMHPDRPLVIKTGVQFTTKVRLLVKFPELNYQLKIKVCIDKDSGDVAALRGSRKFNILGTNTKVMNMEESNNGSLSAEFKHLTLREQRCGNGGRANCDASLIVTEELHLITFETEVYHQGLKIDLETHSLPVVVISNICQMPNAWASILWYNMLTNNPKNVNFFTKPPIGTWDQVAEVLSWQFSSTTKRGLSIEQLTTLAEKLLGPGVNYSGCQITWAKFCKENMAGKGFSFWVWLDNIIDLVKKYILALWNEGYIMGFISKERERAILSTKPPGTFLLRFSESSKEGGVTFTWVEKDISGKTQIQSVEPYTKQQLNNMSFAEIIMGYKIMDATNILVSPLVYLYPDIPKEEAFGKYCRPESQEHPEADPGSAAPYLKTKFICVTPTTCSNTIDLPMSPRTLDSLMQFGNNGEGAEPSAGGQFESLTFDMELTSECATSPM
# key: entry, value: IC50

MOLECULE | IC50
CC(C)(C)C(=O)OCOP(=O)(OCOC(=O)C(C)(C)C)C(F)(F)c1ccc2sc(C(=O)N[C@H]3CCCC[C@H]4CC[C@@H](C(=O)N5CCN(C(=O)c6cn[nH]c6)CC5)N4C3=O)cc2c1 [Compound 192] | 0.1 to 1 µM
CC(C)(C)C(=O)SCCOP(=O)(Oc1ccc(C#N)cc1)C(F)(F)c1ccc2sc(C(=O)N[C@H]3CCCC[C@H]4CC[C@@H](C(=O)N5C[C@@H](C#N)[C@H](c6ccccc6)C5)N4C3=O)cc2c1 (single isomer, unassigned) [Compound 134] | > 3 µM
CC(C)(C)C(=O)SCCOP(=O)(OCCSC(=O)C(C)(C)C)C(F)(F)c1ccc2sc(C(=O)N[C@H]3CCCC[C@H]4CC[C@@H](C(=O)N5C[C@@H](C#N)[C@H](c6cc[nH]c(=O)c6)C5)N4C3=O)cc2c1 (relative stereo) [Compound 157] | 0.1 to 1 µM
CC(C)(C)C(=O)SCCOP(=O)(OCCSC(=O)C(C)(C)C)C(F)(F)c1ccc2sc(C(=O)N[C@H]3CCCC[C@H]4CC[C@@H](C(=O)N5CC(c6c[nH]cn6)C5)N4C3=O)cc2c1 [Compound 182] | < 0.1 µM
CCCC(=O)SCCOP(=O)(OCCSC(=O)CCC)C(F)(F)c1ccc2sc(C(=O)NC3CCCC4CCC(C(=O)N5CC(c6cccnc6)C5)N4C3=O)cc2c1 (centres unmarked) [Compound 179] | < 0.1 µM

// lookup IC50 for CC(C)(C)C(=O)OCOP(=O)(OCOC(=O)C(C)(C)C)C(F)(F)c1ccc2sc(C(=O)NC3CCCCC4CCCC(C(=O)N5CC(C#N)C(c6ccccc6)C5)N4C3=O)cc2c1 (centres unmarked) [Compound 169]
0.1 to 1 µM

// lookup IC50 for CCCC(=O)SCCOP(=O)(Cc1ccc2sc(C(=O)N[C@H]3CCCC[C@H]4CC[C@@H](C(=O)N5CC(C#N)C(c6ccccc6)C5)N4C3=O)cc2c1)OCCSC(=O)CCC (single isomer, unassigned) [Compound 125]
> 3 µM

// lookup IC50 for CC(C)(C)C(=O)OCOP(=O)(OCOC(=O)C(C)(C)C)C(F)(F)c1ccc2sc(C(=O)N[C@H]3CCCC[C@H]4CCC[C@@H](C(=O)N5CC(C(=O)N6CCOCC6)C5)N4C3=O)cc2c1 [Compound 172]
< 0.1 µM

// lookup IC50 for CC(C)(C)C(=O)OCOP(=O)(OCOC(=O)C(C)(C)C)C(F)(F)c1ccc2sc(C(=O)N[C@H]3CCCC[C@H]4CC[C@@H](C(=O)N5CC(C#N)C(c6cc[nH]c(=O)c6)C5)N4C3=O)cc2c1 (mixture of isomers) [Compound 147]
0.1 to 1 µM

// lookup IC50 for CC(C)(C(=O)SCCOP(=O)(OCCSC(=O)C(C)(C)C(F)(F)F)C(F)(F)c1ccc2sc(C(=O)N[C@H]3CCCC[C@H]4CC[C@@H](C(=O)N5C[C@@H](C#N)[C@H](c6ccccc6)C5)N4C3=O)cc2c1)C(F)(F)F (single isomer, unassigned) [Compound 159]
> 3 µM

// lookup IC50 for CCCC(=O)SCCOP(=O)(OCCSC(=O)CCC)C(F)(F)c1ccc2sc(C(=O)N[C@H]3CCCC[C@H]4CC[C@@H](C(=O)N5C[C@@H](C#N)[C@H](c6ccccc6)C5)N4C3=O)cc2c1 (single isomer, unassigned) [Compound 152]
1 to 3 µM

// lookup IC50 for CCCC(=O)SCCOP(=O)(Oc1ccccc1)C(F)(F)c1ccc2sc(C(=O)N[C@H]3CCCC[C@H]4CC[C@@H](C(=O)N5C[C@H](c6ccccc6)[C@@H](C#N)C5)N4C3=O)cc2c1 (single isomer, unassigned) [Compound 128]
> 3 µM

// lookup IC50 for CC(C)(CO)C(=O)SCCOP(=O)(Cc1ccc2sc(C(=O)NC3CCCCC4CCC(C(=O)N5CC(C#N)C(c6ccccc6)C5)N4C3=O)cc2c1)OCCSC(=O)C(C)(C)CO (single isomer, unassigned) [Compound 199]
> 3 µM

----------
Molecular target: pY641-STAT6 in PBMC (Homo sapiens, UniProt P42226)
Construct: Cryopreserved Peripheral Blood Mononuclear Cells (PBMC) are from AllCells; host or cells: cryopreserved PBMC
Sequence (P42226 whole entry): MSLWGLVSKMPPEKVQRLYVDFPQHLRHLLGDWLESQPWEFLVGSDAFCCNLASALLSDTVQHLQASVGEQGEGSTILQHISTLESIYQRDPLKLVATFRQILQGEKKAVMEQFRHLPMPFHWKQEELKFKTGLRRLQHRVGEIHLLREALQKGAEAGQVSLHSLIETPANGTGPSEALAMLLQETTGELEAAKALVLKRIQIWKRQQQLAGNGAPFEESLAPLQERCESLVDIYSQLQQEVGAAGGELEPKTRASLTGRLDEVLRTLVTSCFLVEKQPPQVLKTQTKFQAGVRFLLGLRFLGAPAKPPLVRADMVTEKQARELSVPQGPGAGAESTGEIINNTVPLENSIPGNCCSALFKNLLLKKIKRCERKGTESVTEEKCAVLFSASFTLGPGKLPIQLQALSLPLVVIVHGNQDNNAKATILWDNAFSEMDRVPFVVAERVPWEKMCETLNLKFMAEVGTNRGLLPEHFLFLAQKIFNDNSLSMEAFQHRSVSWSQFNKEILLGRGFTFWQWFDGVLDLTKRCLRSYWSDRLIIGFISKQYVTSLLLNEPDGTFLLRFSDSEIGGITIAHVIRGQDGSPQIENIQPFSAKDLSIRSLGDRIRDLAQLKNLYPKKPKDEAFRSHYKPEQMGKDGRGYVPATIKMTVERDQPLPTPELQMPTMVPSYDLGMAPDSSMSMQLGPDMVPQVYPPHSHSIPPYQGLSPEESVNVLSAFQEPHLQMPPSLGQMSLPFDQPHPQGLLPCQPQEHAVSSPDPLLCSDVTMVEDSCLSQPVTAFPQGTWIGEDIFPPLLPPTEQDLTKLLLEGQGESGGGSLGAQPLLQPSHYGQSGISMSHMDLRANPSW
Assay: MSD-pSTAT-PBMC Assay (pSTAT6, IL-4 stimulated)
Assay type: cell-based
Details: PBMC, compound 3 hrs, then 1 ng/mL IL-4 for 10 min; Table 1114; read-out: pSTAT6
Protocol: Cryopreserved Peripheral Blood Mononuclear Cells (PBMC) are from AllCells. Recombinant Human IL-4 and IL-6 are from Peprotech. […] Cyropreserved PBMCs were thawed out and allowed to recover overnight in IMDM+10% heat-inactivated FBS prior to plating 50,000 (STAT3) or 25,000 (STAT6) cells per well in 96-well U-bottom tissue culture plates. […] Assay plates were then washed and 150 μL of 1× Read Buffer-T (MSD) was added to each well prior to reading on an SQ120 MSD Plate Reader. […]
pIC50: −log10 of the molar value.
REPORTED ENDPOINT: pIC50

Below, each entry is followed by its recorded pIC50 result.
COMPOUND | ASSAY TARGET | REPORTED ENDPOINT | VALUE OBSERVED
CC(C)(C)C(=O)OCOP(=O)(OCOC(=O)C(C)(C)C)C(F)(F)c1ccc2sc(C(=O)N[C@H]3CCCC[C@H]4CC[C@@H](C(=O)N5CC6(CN(C(=O)Cc7ccccc7)C6)C5)N4C3=O)cc2c1 | pY641-STAT6 in PBMC (Homo sapiens, UniProt P42226) | pIC50 | 6.00 to 7.00
CC(C)(C)C(=O)OCOP(=O)(OCOC(=O)C(C)(C)C)C(F)(F)c1ccc2sc(C(=O)N[C@H]3CCCC[C@H]4CCC[C@@H](C(=O)N5CC(n6ccnc6)C5)N4C3=O)cc2c1 | pY641-STAT6 in PBMC (Homo sapiens, UniProt P42226) | pIC50 | < 5.52
CC(C)(C)C(=O)SCCOP(=O)(OCCSC(=O)C(C)(C)C)C(F)(F)c1ccc2sc(C(=O)N[C@H]3CCCC[C@H]4CC[C@@H](C(=O)N5C[C@@H](C#N)[C@H](c6cc[nH]c(=O)c6)C5)N4C3=O)cc2c1 (relative stereo) | pY641-STAT6 in PBMC (Homo sapiens, UniProt P42226) | pIC50 | 6.00 to 7.00
CC(C)(C)C(=O)OCOP(=O)(OCOC(=O)C(C)(C)C)C(F)(F)c1ccc2sc(C(=O)N[C@H]3CCC[C@H]4CCC[C@@H](C(=O)N5CC(C#N)C(c6ccccc6)C5)N4C3=O)cc2c1 (stereo partly shown) | pY641-STAT6 in PBMC (Homo sapiens, UniProt P42226) | pIC50 | > 7.00
CC(C)CC(=O)SCCOP(=O)(OCCSC(=O)CC(C)C)C(F)(F)c1ccc2ccc(C(=O)N[C@H]3CCCC[C@H]4CC[C@@H](C(=O)N5C[C@H](c6cc[nH]c(=O)c6)[C@@H](C#N)C5)N4C3=O)cc2c1 (single isomer, unassigned) | pY641-STAT6 in PBMC (Homo sapiens, UniProt P42226) | pIC50 | > 7.00
CC(C)(C)C(=O)OCOP(=O)(OCOC(=O)C(C)(C)C)[C@@H](F)c1ccc2sc(C(=O)N[C@H]3CCCC[C@H]4CC[C@@H](C(=O)N5C[C@@H](C#N)[C@H](c6ccccc6)C5)N4C3=O)cc2c1 (single isomer, unassigned) | pY641-STAT6 in PBMC (Homo sapiens, UniProt P42226) | pIC50 | > 7.00

Okay, now this compound:
// lookup pIC50 for CC(C)OC(=O)OCOP(=O)(OCOC(=O)OC(C)C)[C@H](F)c1ccc2sc(C(=O)N[C@H]3CCCC[C@H]4CC[C@@H](C(=O)N5C[C@H](c6cc[nH]c(=O)c6)[C@@H](C#N)C5)N4C3=O)cc2c1 (single isomer, unassigned)
6.00 to 7.00

----------
target: pY705-STAT3 in PBMC (Homo sapiens); construct: Cryopreserved Peripheral Blood Mononuclear Cells (PBMC) are from AllCells; host or cells: cryopreserved PBMC; assay: MSD-pSTAT-PBMC Assay (pSTAT3, IL-6 stimulated); format: cell-based; settings: PBMC, compound 3 hrs, then 10 ng/mL IL-6 for 10 min; Table 115; read-out: STAT3
REPORTED ENDPOINT: IC50

Below, each entry is followed by its recorded IC50 result.
COMPOUND | IC50
CCCOC(=O)[C@H](C)NP(=O)(Oc1ccccc1)C(C)(F)c1ccc2sc(C(=O)N[C@H]3CCC[C@H]4CC[C@@H](C(=O)N5CC(c6cccnc6)C5)N4C3=O)cc2c1 (some centres unmarked) | 1000 to 3000 nM
CCCOC(=O)[C@H](COC)NP(=O)(Cc1ccc2sc(C(=O)N[C@H]3CCC[C@H]4CC[C@@H](C(=O)N5CC(c6cnccc6N(C)C)C5)N4C3=O)cc2c1)Oc1ccccc1 (some centres unmarked) | < 100 nM

// lookup IC50 for CC(C)OC(=O)OCOP(=O)(OCOC(=O)OC(C)C)C(F)(F)c1ccc2ccc(C(=O)N[C@H]3CCCC[C@H]4CC[C@@H](C(=O)N5C[C@@H](C#N)[C@H](c6cc[nH]c(=O)c6)C5)N4C3=O)cc2c1 (single isomer, unassigned)
1000 to 3000 nM

// lookup IC50 for CCCOC(=O)[C@H](C)NP(=O)(Oc1ccccc1)C(F)c1ccc2sc(C(=O)N[C@H]3C[C@H](C)C[C@H]4CC[C@@H](C(=O)N5CC(c6cnccc6F)C5)N4C3=O)cc2c1 (some centres unmarked)
< 100 nM

// lookup IC50 for CCCOC(=O)[C@H](C)NP(=O)(Cc1ccc2sc(C(=O)N[C@H]3CCC[C@H]4CC[C@@H](C(=O)N5CC(c6cccnc6)C5)N4C3=O)cc2c1)Oc1c(C)cccc1C (some centres unmarked)
< 100 nM
